Origin of measurements: patent US20230192834A1

Entries and their measured pKd follow.
Molecular target: T1, TGFβ2 (R&D Systems)
T1 sequence (P61812 303-414, species assumed, looked up): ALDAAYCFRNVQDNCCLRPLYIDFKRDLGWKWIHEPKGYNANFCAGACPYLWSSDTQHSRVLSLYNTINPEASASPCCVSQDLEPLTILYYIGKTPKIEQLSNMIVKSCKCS
Assay: SPR (Biacore T200), TGFβ amine-coupled to chip, 1:1 fit
Quick note: pKd means taking -log10 of the concentration in moles per liter.

// below: answered binders
>  <binder>
Felinized anti-TGFβ1,2,3 antibody VH3.2 - VL8 (antibody, V domains shown) VH: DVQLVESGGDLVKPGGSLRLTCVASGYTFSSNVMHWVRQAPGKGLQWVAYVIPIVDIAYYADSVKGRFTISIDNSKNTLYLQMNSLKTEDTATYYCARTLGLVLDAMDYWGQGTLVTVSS VL: DIVMTQSPGSLAGSPGQQVTMNCRASQSLGSSYLAWYQQKPGQHPELLIYGASSRAPGVPDRFSGSGSGTDFTLTISNLQAEDVANYYCQQYADSPITFGQGTKLEIKR

>  <pKd>
8.67

$$$$
>  <binder>
Felinized anti-TGFβ1,2,3 antibody VH2.2 - VL3 (antibody, V domains shown) VH: QVLLVQSGADVRKPGASVKIFCKASGYTFSSNVMHWVRQTPAQGFEWMGSVIPIVDIATYARRFQGRLVLTADTSTNTAYMELRSLKSADTAVYYCARTLGLVLDAMDYWGQGSLVTVSS VL: EIQMTQSPSSLSASPGDRVTITCRASQSLGSSYLAWYQQKPGKVPKLLIYGASSRAPGVPSRFSGSGSGTDFTLTISSLEPEDAATYYCQQYADSPITFGQGTKLEIKR

>  <pKd>
8.62

$$$$
>  <binder>
Caninized anti-TGFβ1,2,3 antibody VH3.5 - VL2 (antibody, V domains shown) VH: EVQLVQSAAEVKKPGASVKVSCKTSGYIFISNVISWVQQAPGAGLEWMGGVIPIVDIANYAQRFKGRVTLTADTSTNTVYMELSNLRTEDTAVYYCASTLGLVLDAMDYWGQGTLVTVSS VL: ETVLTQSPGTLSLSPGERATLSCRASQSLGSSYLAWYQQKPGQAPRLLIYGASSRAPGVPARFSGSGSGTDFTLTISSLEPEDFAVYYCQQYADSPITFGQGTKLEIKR

>  <pKd>
8.45

$$$$
>  <binder>
Felinized anti-TGFβ1,2,3 antibody VH3.2 - VL7 (antibody, V domains shown) VH: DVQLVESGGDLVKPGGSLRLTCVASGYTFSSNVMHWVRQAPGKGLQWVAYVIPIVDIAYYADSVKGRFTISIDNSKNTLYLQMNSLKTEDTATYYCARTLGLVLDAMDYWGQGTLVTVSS VL: DIVLTQPPSLSVNLGQTARITCRASQSLGSSYLAWYQQKPGQAPKLVTYGASSRAPGIPDRFSGTNSGITATLTISGARAEDEADYYCQQYADSPITFGQGTKLEIKR

>  <pKd>
9.23

$$$$
>  <binder>
Felinized anti-TGFβ1,2,3 antibody VH3.2 - VL3 (antibody, V domains shown) VH: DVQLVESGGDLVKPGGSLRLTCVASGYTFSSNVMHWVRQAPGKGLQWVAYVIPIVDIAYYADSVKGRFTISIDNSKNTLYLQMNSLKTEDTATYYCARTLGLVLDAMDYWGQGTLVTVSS VL: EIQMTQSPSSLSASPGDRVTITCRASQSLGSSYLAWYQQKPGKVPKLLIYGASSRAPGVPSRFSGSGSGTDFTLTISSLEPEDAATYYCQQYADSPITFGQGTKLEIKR

>  <pKd>
9.12

$$$$

# query: pKd of entry Felinized anti-TGFβ1,2,3 antibody VH3.8 - VL7 (antibody, V domains shown) VH: QVQLVQSGAEVKKPGSSVKVSCKASGYTFSSNVISWVRQAPGKGLQWVAGVIPIVDIANYAQRFKGRFTISIDNSKNTLYLQMNSLKTEDTATYYCASTLGLVLDAMDYWGQGTLVTVSS VL: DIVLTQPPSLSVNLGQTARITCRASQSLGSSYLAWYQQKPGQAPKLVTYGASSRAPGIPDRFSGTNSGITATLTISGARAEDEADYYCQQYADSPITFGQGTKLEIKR 8.71
